Listed here are molecules together with their documented pIC50.
Molecular target: GST-tagged KRAS-G12D (2-169) (Homo sapiens, UniProt P01116, G12D)
Sequence (P01116 2-169 isoform P01116-2 G12D): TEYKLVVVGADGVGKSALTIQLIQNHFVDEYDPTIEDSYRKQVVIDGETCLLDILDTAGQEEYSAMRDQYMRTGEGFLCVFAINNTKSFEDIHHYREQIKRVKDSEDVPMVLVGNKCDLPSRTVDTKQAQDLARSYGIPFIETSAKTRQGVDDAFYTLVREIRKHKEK
Test: Nucleotide exchange assay (NEA), SOS-mediated, HTRF, KRAS G12D
Type: biochemical
Conditions: Table 4; IC50 extracted at 30 min; 20 nM SOScat; read-out: NEA G12D IC50
pIC50: −log10 of the molar value.
endpoint.label: pIC50

INSERT INTO results (molecule, result) VALUES
  ('N#Cc1c(N)sc2c1C1(CC2)CN(c2nc(NCc3ccn[nH]3)nc(OC[C@@]34CCCN3C[C@H](F)C4)n2)C1', '6.00 to 7.00'),
  ('C[C@H](c1cccnc1N)N(CC(N)=O)c1nc(OC[C@@]23CCCN2C[C@H](F)C3)nc(N2CC3(C2)SCc2sc(N)c(C#N)c23)n1', '> 8.00'),
  ('CC(c1nsnc1N)N(C)c1nc(OC[C@@]23CCCN2C[C@H](F)C3)nc(N2CC3(C2)SCc2sc(N)c(C#N)c23)n1 (single isomer, unassigned) [Compound 184B]', '6.00 to 7.00');
